Origin of the recorded values: patent US20060079453A1

Reported values of pIC50 for individual entries
target: HLA-B*4403 (Homo sapiens, UniProt P01889, A223V/A65T/A93T/A95T/D201E/D98Y/E176V/E187L/E204Q/E69K/G107R/H137Y/K202T/L105A/L119I/N104T/N87E/Q56L/Q94N/R106L/R155S/R180L/S101N/S121R/S35A/S48T/T118I/V36M/W191S/Y140D/Y91S); test: biochemical; type: binding
No end group written: not given here.
Bear in mind: pIC50 is minus log10 of a mol/L concentration; give just that figure.

Consider the following illustrative entries.
DENLWVTVY    6.01
AENLWDTVY    7.17
AENLVVTVY    6.69
AENTWVTVY    6.78
AENLWVTVP    5.61

pIC50 for AENLWVTVL is 6.68

Field pIC50 (entry AENLWVTTY ) reads 7.59

Recorded pIC50 (sequence AENLWVTVR ): 5.83

----------
biological target: HLA-DR DRB1*0401 (DR4) (Homo sapiens, UniProt P01903+P01911, A100K/A169T/F76Y/I96L/K127E/L162R/M171V/N62H/P40V/Q125Y/R42H/S133A/S149N/S66Y/V115G/V209L/W38E); assay: biochemical; type: binding; conditions: DRB1 *0401
pIC50: −log10 of the molar value. No end group written: not given here.
# pIC50 annotations

GNEIFNTSLFEPPPP    < 4.70

Record KSRLQGGVLVNEILN , field pIC50: < 4.57

// sample AFGSMAKKGEEQNVRSAGEL , its pIC50 was < 6.18

The sequence TPDKLTGPFTVRYTTEGGTK showed pIC50 equal to < 6.18

Looking up YLVTGERGFFYTDKT , I see its pIC50 listed as < 4.69

Lookup result for FFKNIVTFFKNIVT ; measured pIC50: < 6.18

----------
Readings of pIC50 for the listed substances
target: HLA-DR DRB1*1501 (DR15) (Homo sapiens, UniProt P01903+P01911); experiment: biochemical; format: binding; details: read-out: DRBI *1501
// returns pIC50 (minus log10 of molar concentration), number only

Sample records with pIC50:
HQAISPRTLNSPAIF    5.09
SHDLMLLRISEPAEL    5.96
AVGLPSIPVHPIGYY    6.29
TLERPKTLSPGKNGV    4.63
VYDFVFADLRGVYRD    6.07

substance ENPVVHFFKIHVTPA , pIC50 observed: 8.60

Looking up KSKFNILSSPLFNNF , I see its pIC50 listed as 8.23

Query KPAVYTKVVHYRKWI yields pIC50 of 6.40

Per the record, QLQQFQKEDAAVTIY has pIC50 of 5.76

For record QKQVQMMIMIKFMGV the listed pIC50 is 6.44

So for FAGIRRDGLLLRIVD , the logged pIC50 turned out to be 7.55

----------
target: HLA-B*5401 (Homo sapiens, UniProt P01889, A329T/C349S/D138N/D201E/E176V/E187T/E204Q/E69G/I76V/K202T/L119W/R155S/R180L/S121T/S35A/S48A/V127L/V306I/V36M/Y140L); experiment: biochemical; type: binding; details: B*5401 binding affinity (IC50)
pIC50: −log10 of the molar value. No end group written: not given here.
value type: pIC50

# sequence GPGHKARVI ; its pIC50 = < 4.30

Noted for GPKVKQWPI : its pIC50 reads < 4.30

Noted for RPQVPLRPMTI : its pIC50 reads < 4.82
